Numbers sourced from paper PMC10892375.

system: hCB1 mutant S173A^2.60 (Homo sapiens, UniProt P21554, S173A)
Construct: expressed in transfected cells; host or cells: HEK293
Sequence (P21554 whole entry S173A): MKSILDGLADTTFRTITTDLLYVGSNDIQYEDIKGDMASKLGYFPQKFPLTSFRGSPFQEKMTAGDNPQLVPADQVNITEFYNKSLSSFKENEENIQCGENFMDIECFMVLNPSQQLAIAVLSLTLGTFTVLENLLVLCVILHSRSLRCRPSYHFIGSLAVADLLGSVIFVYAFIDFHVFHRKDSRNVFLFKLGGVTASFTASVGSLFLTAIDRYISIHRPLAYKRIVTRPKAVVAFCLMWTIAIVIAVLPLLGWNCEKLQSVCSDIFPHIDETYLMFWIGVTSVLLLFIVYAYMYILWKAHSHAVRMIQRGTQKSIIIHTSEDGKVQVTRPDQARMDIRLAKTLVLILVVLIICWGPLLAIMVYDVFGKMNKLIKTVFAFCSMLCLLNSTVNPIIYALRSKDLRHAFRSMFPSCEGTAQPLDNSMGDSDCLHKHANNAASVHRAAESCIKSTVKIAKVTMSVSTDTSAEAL
measurementProtocol: pIRES G protein dissociation BRET assay, S173A mutant
Assay type: cell-based
conditions: 10 μM ligand alone
assayMetric: G protein dissociation, AUC of 10 μM compound (maximal response)

[[record]]
compound = "O=[N+]([O-])C[C@@H](c1ccccc1)c1c(-c2ccccc2)[nH]c2ccccc12"
endpointresult = "−137.3"

[[record]]
compound = "Cc1ccc2c(C(C[N+](=O)[O-])c3cccs3)c(-c3ccccc3)[nH]c2c1 (stereo not shown)"
endpointresult = "−144.2"

[[record]]
compound = "O=[N+]([O-])C[C@H](c1ccccc1)c1c(-c2ccccc2)[nH]c2ccccc12"
endpointresult = "−105.5"

[[record]]
compound = "CCCCCCC(C)(C)c1ccc([C@@H]2C[C@H](O)CC[C@H]2CCCO)c(O)c1"
endpointresult = "−146.2"

